The origin of these recorded values is patent US20250154198A1.

Measured remaining at 4 h, 10 μM, listed per entry.
Experiment: Peptide stability in simulated intestinal fluid (SIF)
Assay type: in vitro ADME
Conditions: pig, simulated intestinal fluid (SIF) with porcine pancreatin, Table 3-2, porcine pancreatin, pH 6.8, 37° C., 10 μM, 4 h, read-out: SIF (% remaining 4 h)
*1 amine or outer side, *2 acyl side, *3 side chain or, on linkers, in order; H or OH if unused. Where a SMILES comes first, the peptide text is derived from it. Bridges are numbered along the chain shown (N, C = ends). [ ]: non-standard residue; d: D form. αMeAla(3-pyridyl) = C[C@](N)(Cc1cccnc1)C(=O)O; Trp(1-Me) = Cn1cc(C[C@H](N)C(=O)O)c2ccccc21; Phe(4-Me) = Cc1ccc(C[C@H](N)C(=O)O)cc1; 2Nal = N[C@@H](Cc1ccc2ccccc2c1)C(=O)O; AEF = NCCOc1ccc(C[C@H](N)C(=O)O)cc1; X1 = O=C(Cc1ccc(CN[*:1])cc1)[*:2]; αMeL = CC(C)C[C@](C)(N)C(=O)O; CH2COCH2 = O=C(C[*:1])C[*:2]; αMeV = CC(C)[C@](C)(N)C(=O)O; 3Amb = NCc1cccc(C(=O)O)c1; Dab = NCC[C@H](N)C(=O)O
parameter: remaining at 4 h, 10 μM (%)

{"compound": "CC(C)C[C@]1(C)NC(=O)[C@H](Cc2ccc3ccccc3c2)NC(=O)[C@H](Cc2ccc(OCCN)cc2)NC(=O)[C@@H]2CSCC(=O)CSC[C@H](NC(=O)[C@H](CO)NC(=O)c3cccc(c3)CNC(=O)CC[C@@H](C(=O)N[C@@H](CCCNC(=N)N)C(N)=O)NC1=O)C(=O)N[C@@H](Cc1c[nH]c3ccccc13)C(=O)N[C@@H](CCC(N)=O)C(=O)N2 [Compound 38] ([3Amb]SCWQC[AEF][2Nal][αMeL]ER-NH2; linker 3-6 via CH2COCH2; lactam N-10)", "parameter": "remaining at 4 h, 10 μM", "readout-number": 5}
{"compound": "CC(=O)N[C@H]1CCCCNC(=O)CC[C@@H](C(=O)N[C@@H](CCCNC(=N)N)C(N)=O)NC(=O)[C@](C)(CC(C)C)NC(=O)[C@H](Cc2ccc3ccccc3c2)NC(=O)[C@H](Cc2ccc(OCCN)cc2)NC(=O)[C@@H]2CSCC(=O)CSC[C@H](NC(=O)[C@H](CO)NC1=O)C(=O)N[C@@H](Cc1c[nH]c3ccccc13)C(=O)N[C@@H](CCC(N)=O)C(=O)N2 [Compound 47] (Ac-KSCWQC[AEF][2Nal][αMeL]ER-NH2; lactam 1-10; linker 3-6 via CH2COCH2)", "parameter": "remaining at 4 h, 10 μM", "readout-number": 0}
{"compound": "CC[C@H](C)[C@@H]1NC(=O)Cc2ccc(cc2)CNC(=O)CC[C@@H](C(=O)N[C@@H](CCN)C(=O)N[C@@](C)(Cc2cccnc2)C(N)=O)NC(=O)[C@](C)(C(C)C)NC(=O)[C@H](Cc2cn(C)c3ccccc23)NC(=O)[C@H](Cc2ccc(C)cc2)NC(=O)[C@@H]2CCNC(=O)CC[C@H](NC1=O)C(=O)N[C@@H](Cc1c[nH]c3ccccc13)C(=O)N[C@@H](CCC(N)=O)C(=O)N2 [Compound 175] ([X1]IEWQ[Dab][Phe(4-Me)][Trp(1-Me)][αMeV]E[Dab][αMeAla(3-pyridyl)]-NH2; lactam 3-6, N-10)", "parameter": "remaining at 4 h, 10 μM", "readout-number": 93}
